measurement.notes: Human HepG2 cell viability assay in 384 well format
Assay type: toxicity, cell-based
Parameters: dose 125 nL, time 70.5 hour; concentration not given beside the values
measurement.setup: HepG2 cells, read-out: Inhibition

molecule: CC(C)N1CCc2ncn(C)c2C1C(=O)NCCN1CCCC1 (stereo unspecified)
result.unit: %
cytotoxicity at 70.5 h: -8.41
--
molecule: CCOC(C)c1nccn1CCC(=O)Nc1cc(C)on1 (stereo unspecified)
result.unit: %
cytotoxicity at 70.5 h: 6.06
--
molecule: CC(c1ccccc1)n1c(SCC(=O)O)nnc1-c1ccccc1Cl (stereo unspecified)
result.unit: %
cytotoxicity at 70.5 h: -4
--
molecule: CC(=O)N1CCCC1(C)c1nc(C)no1 (stereo unspecified)
result.unit: %
cytotoxicity at 70.5 h: 0.978
--
molecule: O=C(Cn1cc(C(=O)O)ccc1=O)Nc1ccc(F)cc1Cl
result.unit: %
cytotoxicity at 70.5 h: -23.3
--
molecule: CC(C)NC(=O)Nc1ccc(CNCc2cccc(C#N)c2)cc1
result.unit: %
cytotoxicity at 70.5 h: -3.33
